# Tested on: Haemophilus influenzae C.L.
# ASSAY_NOTES: MIC, standard agar-dilution assay (Table III)
# Type: cell-based
# COND: Haemophilus influenzae
# MIC annotations
Could you give me the number in µg/mL? Just the number is fine.

Request: GET /values?readout=MIC&item= CCC1OC(=O)CC(O)C(C)C(OC2OC(C)C(O)C(N(C)C)C2O)C(CC=O)CC(C)C(=O)C=CC(C)=CC1CN(Cc1ccccc1)C1CC2CCC1C2 (stereo not shown)
Result: 1

Request: Reported MIC, compound CCC1OC(=O)CC(O)C(C)C(OC2OC(C)C(O)C(N(C)C)C2O)C(CC=O)CC(C)C(=O)C=CC(C)=CC1CN1CCC2CCCCC2C1 (stereo not shown) : ____
Result: 0.5

Request: Quick check: MIC of CCC1OC(=O)CC(O)C(C)C(OC2OC(C)C(O)C(N(C)C)C2O)C(CC=O)CC(C)C(=O)C=CC(C)=CC1CNC12CC3CC(CC(C3)C1)C2 (stereo not shown) ?
Result: 2

Request: What value of MIC has been recorded for this entry: CCC1OC(=O)CC(O)C(C)C(OC2OC(C)C(O)C(N(C)C)C2O)C(CC=O)CC(C)C(=O)C=CC(C)=CC1CN1CC2CCC(CC2)C1 (stereo not shown) [Compound 17, 23-(3-azabicyclo[3.2.2]nonan-3-yl)-OMT]
Result: 2
